# key: entry, value: MIC
System: Escherichia coli
Test: Antimicrobial activity against Escherichia coli ATCC 25922 by micro broth dilution or agar based method
Format: functional
observed_property: MIC

[[record]]
molecule = "O=C1COc2ccc(CNC34CCC(CCc5c(F)cnc6ccc(OC7CCC7)nc56)(CC3)OC4)nc2N1"
observed_property = "MIC"
endpoint_result = "64 µg/mL"

[[record]]
molecule = "NC1COCC1Oc1ccc2ncc(F)c(CCC34CCC(NCc5ccc6c(n5)NC(=O)CO6)(CC3)CO4)c2n1 (stereo not drawn)"
observed_property = "MIC"
endpoint_result = "4 µg/mL"

[[record]]
molecule = "CN(C)C(=O)COc1ccc2ncc(F)c(CCC34CCC(NCc5ccc6c(n5)NC(=O)CO6)(CC3)CO4)c2n1"
observed_property = "MIC"
endpoint_result = "16 µg/mL"

[[record]]
molecule = "O=C1COc2ccc(CNC34CCC(CCc5c(F)cnc6ccc(OCC7(O)COC7)nc56)(CC3)OC4)nc2N1"
observed_property = "MIC"
endpoint_result = "16 µg/mL"

[[record]]
molecule = "CNC(=O)COc1ccc2ncc(F)c(CCC34CCC(NCc5ccc6c(n5)NC(=O)CO6)(CC3)CO4)c2n1"
observed_property = "MIC"
endpoint_result = "16 µg/mL"

[[record]]
molecule = "CCOc1ccc2ncc(F)c(CCC34CCC(NCc5ccc6c(n5)NC(=O)CO6)(CC3)CO4)c2n1"
observed_property = "MIC"
endpoint_result = "4 µg/mL"

[[record]]
molecule = "O=C1COc2ccc(CNC34CCC(CCc5c(F)cnc6ccc(OCC(F)(F)F)nc56)(CC3)OC4)nc2N1"
observed_property = "MIC"
endpoint_result = "16 µg/mL"

[[record]]
molecule = "O=C1COc2ccc(CNC34CCC(CCc5c(F)cnc6ccc(OCCCCO)nc56)(CC3)OC4)nc2N1"
observed_property = "MIC"
endpoint_result = "8 µg/mL"


----------
Test system: Staphylococcus aureus
Test: Antimicrobial activity against Staphylococcus aureus Smith by micro broth dilution or agar based method
Format: functional
observed_property: log10 MIC (log10 of the value in µg/mL)

[[record]]
compound = "NC1CC1COc1ccc2ncc(F)c(CCC34CCC(NCc5ccc6c(n5)NC(=O)CO6)(CC3)CO4)c2n1 (stereo not given)"
target_or_system = "Staphylococcus aureus"
endpoint_result = -0.90

[[record]]
compound = "N[C@H]1C(=O)N[C@@H]1COc1ccc2ncc(F)c(CCC34CCC(NCc5ccc6c(n5)NC(=O)CO6)(CC3)CO4)c2n1"
target_or_system = "Staphylococcus aureus"
endpoint_result = -0.30

[[record]]
compound = "NCCCCCOc1ccc2ncc(F)c(CCC34CCC(NCc5ccc6c(n5)NC(=O)CO6)(CC3)CO4)c2n1"
target_or_system = "Staphylococcus aureus"
endpoint_result = -0.30

[[record]]
compound = "CC(C)(O)CCOc1ccc2ncc(F)c(CCC34CCC(NCc5ccc6c(n5)NC(=O)CO6)(CC3)CO4)c2n1"
target_or_system = "Staphylococcus aureus"
endpoint_result = 0.00

[[record]]
compound = "N#CC1(COc2ccc3ncc(F)c(CCC45CCC(NCc6ccc7c(n6)NC(=O)CO7)(CC4)CO5)c3n2)CC1"
target_or_system = "Staphylococcus aureus"
endpoint_result = -1.20

[[record]]
compound = "C=CCOc1ccc2ncc(F)c(CCC34CCC(NCc5ccc6c(n5)NC(=O)CO6)(CC3)CO4)c2n1"
target_or_system = "Staphylococcus aureus"
endpoint_result = -1.20

[[record]]
compound = "O=C1COc2ccc(CNC34CCC(CCc5c(F)cnc6ccc(OC[C@H]7C[C@@H]7C(=O)O)nc56)(CC3)OC4)nc2N1"
target_or_system = "Staphylococcus aureus"
endpoint_result = -0.60

[[record]]
compound = "O=C(O)COc1ccc2ncc(F)c(CCC34CCC(NCc5ccc6c(n5)NC(=O)CO6)(CC3)CO4)c2n1"
target_or_system = "Staphylococcus aureus"
endpoint_result = 1.20

[[record]]
compound = "O=C1COc2ccc(CNC34CCC(CCc5c(F)cnc6ccc(OCCCCCO)nc56)(CC3)OC4)nc2N1"
target_or_system = "Staphylococcus aureus"
endpoint_result = -1.20

[[record]]
compound = "N[C@@H]1CO[C@@H]1COc1ccc2ncc(F)c(CCC34CCC(NCc5ccc6c(n5)NC(=O)CO6)(CC3)CO4)c2n1"
target_or_system = "Staphylococcus aureus"
endpoint_result = -0.90

